These entries and their values trace back to the supplement of paper PMC7877785.

procedureText: self-splicing fitness, log relative to wild type (ln ratio); higher = more splicing; Tetrahymena group I intron in knt gene, E. coli kanamycin selection, DiMSum; sequences stand for … in CUCUCU…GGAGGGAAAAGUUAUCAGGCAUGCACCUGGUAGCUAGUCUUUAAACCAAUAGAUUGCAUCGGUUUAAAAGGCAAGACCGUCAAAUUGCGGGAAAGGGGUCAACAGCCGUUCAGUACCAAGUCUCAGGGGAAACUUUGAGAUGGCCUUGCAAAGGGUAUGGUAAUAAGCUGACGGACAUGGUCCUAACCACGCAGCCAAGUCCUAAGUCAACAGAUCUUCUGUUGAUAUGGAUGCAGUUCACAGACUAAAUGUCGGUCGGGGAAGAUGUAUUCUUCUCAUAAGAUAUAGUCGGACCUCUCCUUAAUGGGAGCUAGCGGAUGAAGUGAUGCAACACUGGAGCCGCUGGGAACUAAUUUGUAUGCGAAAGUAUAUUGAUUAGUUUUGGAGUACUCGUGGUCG;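 also: selection with 25 µg/mL kanamycin versus none on LB agar overnight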
cond: 30 °C
propertyMeasured: self-splicing fitness (ln)
Kindly provide the number alone.

input: Entry `AUUUAGCAAUAUUACGGUAU` : reported self-splicing fitness (ln) = ?
output: -1.51

input: Field entry: `UUUGAGCAAUAUUACGGGCG`
output: -3.15

input: Same again, this time with `UCCUAGCAAUAUUACGACUG`
output: -3.17

input: Lookup `CUGGAGCAAUAUUACGUUUA`
output: -3.17

input: Quick one: `GUUGAGCAAUAUUACGUGGG`
output: -3.09

input: How about this sequence: `UACAAGCAAUAUUACGGGCU`
output: -4.2

input: Also, `UGGCAGCAAUAUUACGAAAG` please.
output: -2.17

input: Note, next up: `AGCCAGCAAUAUUACGUACG`
output: -3.04

input: Please give the result for `CAACAGCAAUAUUACGAGGA` too.
output: -3.65

input: What do you get for `GUUAAGCAAUAUUACGUUCA` ?
output: -0.268

input: Thanks! And `CUAGAGCAAUAUUACGAGUU` ?
output: -3.23

input: // same read-out, input: `ACGUAGCAAUAUUACGUGUU`
output: -3.73

input: Same for `CUUAAGCAAUAUUACGAACG`
output: -0.163

input: Ok, now `UCACAGCAAUAUUACGGCUC`
output: -2.9

input: Next: `UUUGAGCAAUAUUACGUUCC`
output: -3.99

input: Also, `AAUCAGCAAUAUUACGCCUC` please.
output: -1.12

input: Also `UGAAAGCAAUAUUACGUAGG` ?
output: -0.728

input: Same thing, different sequence: `UGAUAGCAAUAUUACGCUUU`
output: -3.56

input: Note, next up: `UCGAAGCAAUAUUACGGGAG`
output: -3.68

input: Consider next the sequence `CCUCAGCAAUAUUACGCGUC` in the same way.
output: -4.16

input: What do you get for `UGAGAGCAAUAUUACGAUGC` ?
output: -2.13

input: Follow-up item: `GUGAAGCAAUAUUACGUAAC`
output: -1.99

input: Thanks! And `CUCAAGCAAUAUUACGGAAC` ?
output: -4.26

input: For `CUGCAGCAAUAUUACGUAGG` then?
output: -0.76

input: Queued: `GAAAAGCAAUAUUACGAUUC`
output: -2.34

input: Further, for `GUACAGCAAUAUUACGUACA` ?
output: -3

input: Entry `CGAUAGCAAUAUUACGCUAU` please
output: -2.82

input: Queued: `ACAAAGCAAUAUUACGGGUC`
output: -3.18

input: Also check `GUAAAGCAAUAUUACGUACG`
output: -0.843

input: Follow-up entry: `AAGGAGCAAUAUUACGUACC`
output: -3.01

input: Field entry: `CUCAAGCAAUAUUACGUGUA`
output: -2.47

input: Thanks! And `GAGCAGCAAUAUUACGCACC` ?
output: -2.67

input: How about this sequence: `CCGCAGCAAUAUUACGUACG`
output: -0.247

input: Same question for `GUGCAGCAAUAUUACGCGCG` please.
output: -2.41

input: And `GAGUAGCAAUAUUACGGACA` ?
output: -1.44

input: Then this sequence: `GAGCAGCAAUAUUACGAAUG`
output: -3.81

input: Same lookup for `AUACAGCAAUAUUACGCUAG` , please.
output: -1.61

input: Here is the next sequence: `GUAUAGCAAUAUUACGGUAA`
output: -2.59

input: Again, but for `AGUUAGCAAUAUUACGAUGG`
output: -2.45

input: Quick one: `GUUCAGCAAUAUUACGUGAC`
output: -1.85

input: Likewise for `AAUAAGCAAUAUUACGGAUA` ?
output: -2.35

input: // query: `AAUCAGCAAUAUUACGGCUC`
output: -0.84

input: What do you have for `CCCUAGCAAUAUUACGGACU` ?
output: -3.48

input: Note, next up: `UAUGAGCAAUAUUACGAACG`
output: -2.98

input: Also need `CAGAAGCAAUAUUACGUUAU` , thanks.
output: -3.44

input: // next record `AUGAAGCAAUAUUACGAGCG`
output: 0.0672

input: Would you kindly repeat that for `UGGCAGCAAUAUUACGGACC` ?
output: -2.02
